Data origin: paper PMC9276671

- Protocol Summary: Plasma pharmacokinetics of ALM201 in Phase I patients (validated LC-MS/MS, Phoenix WinNonlin)
- Condition Info: human, plasma, sc, 160 mg, Plasma concentration, geometric mean (CV%), 160 mg SC, day 3 cycle 1, 1 h after dosing, n = 3; LC-MS/MS
No end group written: not given here.
Outcome Measure: level at 1 h (ng/mL)
Your answer is read as ng/mL, so omit the unit and give the number.

Query: Supply reported level at 1 h belonging to this sequence: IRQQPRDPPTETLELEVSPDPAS [ALM201]
Response: 1270

----------
- Protocol Summary: Plasma pharmacokinetics of ALM201 in Phase I patients (validated LC-MS/MS, Phoenix WinNonlin)
- Condition Info: human, plasma, sc, 300 mg, Plasma concentration, geometric mean (CV%), 300 mg SC, day 18 cycle 2, samples collected at 4.5 hours, n = 3; LC-MS/MS
No end group written: not given here.
Outcome Measure: level at 4.5 h
Respond with a number, then the unit of measure.

Query: Supply reported level at 4.5 h belonging to this sequence: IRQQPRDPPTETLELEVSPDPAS [ALM201]
Response: 720 ng/mL

----------
- Protocol Summary: Plasma pharmacokinetics of ALM201 in Phase I patients (validated LC-MS/MS, Phoenix WinNonlin)
- Condition Info: human, plasma, sc, 10 mg, Tmax, median, 10 mg SC, day 1 cycle 1, n = 1; plasma LC-MS/MS
No end group written: not given here.
Outcome Measure: Tmax (h)
Your answer is read as h, so omit the unit and give the number.

Query: Supply reported Tmax belonging to this sequence: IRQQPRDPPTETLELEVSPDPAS [ALM201]
Response: 1.45

----------
- Protocol Summary: Plasma pharmacokinetics of ALM201 in Phase I patients (validated LC-MS/MS, Phoenix WinNonlin)
- Condition Info: human, plasma, sc, 200 mg, Plasma concentration, geometric mean (CV%), 200 mg SC, day 18 cycle 2, 1.5 h after dosing, n = 2; LC-MS/MS
No end group written: not given here.
Outcome Measure: level at 1.5 h (ng/mL)
Your answer is read as ng/mL, so omit the unit and give the number.

Query: Supply reported level at 1.5 h belonging to this sequence: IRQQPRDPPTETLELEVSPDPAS [ALM201]
Response: 1890

----------
- Protocol Summary: Plasma pharmacokinetics of ALM201 in Phase I patients (validated LC-MS/MS, Phoenix WinNonlin)
- Condition Info: human, plasma, sc, 300 mg, Plasma concentration, geometric mean (CV%), 300 mg SC, day 1 cycle 1, 6 h after dosing, n = 3; LC-MS/MS
No end group written: not given here.
Outcome Measure: level at 6 h (ng/mL)
Your answer is read as ng/mL, so omit the unit and give the number.

Query: Supply reported level at 6 h belonging to this sequence: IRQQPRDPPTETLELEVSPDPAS [ALM201]
Response: 901

----------
- Protocol Summary: Plasma pharmacokinetics of ALM201 in Phase I patients (validated LC-MS/MS, Phoenix WinNonlin)
- Condition Info: human, plasma, sc, 20 mg, Plasma concentration, geometric mean (CV%), 20 mg SC, day 18 cycle 2, 2 h after dosing, n = 1; LC-MS/MS
No end group written: not given here.
Outcome Measure: level at 2 h (ng/mL)
Your answer is read as ng/mL, so omit the unit and give the number.

Query: Supply reported level at 2 h belonging to this sequence: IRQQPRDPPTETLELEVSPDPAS [ALM201]
Response: 386

----------
- Protocol Summary: Plasma pharmacokinetics of ALM201 in Phase I patients (validated LC-MS/MS, Phoenix WinNonlin)
- Condition Info: human, plasma, sc, 20 mg, AUC0-t, Gmean (CV), 20 mg SC, day 18 cycle 2, n = 1; plasma LC-MS/MS
No end group written: not given here.
Outcome Measure: AUC(0-t) (ng·h/mL)
Your answer is read as ng·h/mL, so omit the unit and give the number.

Query: Supply reported AUC(0-t) belonging to this sequence: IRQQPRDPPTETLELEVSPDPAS [ALM201]
Response: 1020

----------
- Protocol Summary: Plasma pharmacokinetics of ALM201 in Phase I patients (validated LC-MS/MS, Phoenix WinNonlin)
- Condition Info: human, plasma, sc, 80 mg, Plasma concentration, geometric mean (CV%), 80 mg SC, day 18 cycle 1, 1.5 h after dosing, n = 2; LC-MS/MS
No end group written: not given here.
Outcome Measure: level at 1.5 h (ng/mL)
Your answer is read as ng/mL, so omit the unit and give the number.

Query: Supply reported level at 1.5 h belonging to this sequence: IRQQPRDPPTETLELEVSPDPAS [ALM201]
Response: 884

----------
- Protocol Summary: Plasma pharmacokinetics of ALM201 in Phase I patients (validated LC-MS/MS, Phoenix WinNonlin)
- Condition Info: human, plasma, sc, 20 mg, Tmax, median, 20 mg SC, day 1 cycle 1, n = 1; plasma LC-MS/MS
No end group written: not given here.
Outcome Measure: Tmax
Respond with a number, then the unit of measure.

Query: Supply reported Tmax belonging to this sequence: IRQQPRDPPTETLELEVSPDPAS [ALM201]
Response: 1.5 h

----------
- Protocol Summary: Plasma pharmacokinetics of ALM201 in Phase I patients (validated LC-MS/MS, Phoenix WinNonlin)
- Condition Info: human, plasma, sc, 300 mg, AUC0-t, Gmean (CV), 300 mg SC, day 18 cycle 2, n = 3; plasma LC-MS/MS
No end group written: not given here.
Outcome Measure: AUC(0-t) (ng·h/mL)
Your answer is read as ng·h/mL, so omit the unit and give the number.

Query: Supply reported AUC(0-t) belonging to this sequence: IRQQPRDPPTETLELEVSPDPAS [ALM201]
Response: 10400

----------
- Protocol Summary: Plasma pharmacokinetics of ALM201 in Phase I patients (validated LC-MS/MS, Phoenix WinNonlin)
- Condition Info: human, plasma, sc, 100 mg, Cmax, Gmean (CV), 100 mg SC, day 18 cycle 1, n = 2, CV not calculated; plasma LC-MS/MS
No end group written: not given here.
Outcome Measure: Cmax (ng/mL)
Your answer is read as ng/mL, so omit the unit and give the number.

Query: Supply reported Cmax belonging to this sequence: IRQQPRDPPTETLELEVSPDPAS [ALM201]
Response: 2330

----------
- Protocol Summary: Plasma pharmacokinetics of ALM201 in Phase I patients (validated LC-MS/MS, Phoenix WinNonlin)
- Condition Info: human, plasma, sc, 200 mg, AUC0-t, Gmean (CV), 200 mg SC, day 1 cycle 1, n = 4; plasma LC-MS/MS
No end group written: not given here.
Outcome Measure: AUC(0-t) (ng·h/mL)
Your answer is read as ng·h/mL, so omit the unit and give the number.

Query: Supply reported AUC(0-t) belonging to this sequence: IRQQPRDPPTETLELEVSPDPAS [ALM201]
Response: 5860

----------
- Protocol Summary: Plasma pharmacokinetics of ALM201 in Phase I patients (validated LC-MS/MS, Phoenix WinNonlin)
- Condition Info: human, plasma, sc, 300 mg, Plasma concentration, geometric mean (CV%), 300 mg SC, day 18 cycle 4, 0.5 h after dosing, n = 1; LC-MS/MS
No end group written: not given here.
Outcome Measure: level at 0.5 h (ng/mL)
Your answer is read as ng/mL, so omit the unit and give the number.

Query: Supply reported level at 0.5 h belonging to this sequence: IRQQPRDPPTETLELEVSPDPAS [ALM201]
Response: 1670

----------
- Protocol Summary: Plasma pharmacokinetics of ALM201 in Phase I patients (validated LC-MS/MS, Phoenix WinNonlin)
- Condition Info: human, plasma, sc, 20 mg, Plasma concentration, geometric mean (CV%), 20 mg SC, day 1 cycle 1, 2 h after dosing, n = 1; LC-MS/MS
No end group written: not given here.
Outcome Measure: level at 2 h (ng/mL)
Your answer is read as ng/mL, so omit the unit and give the number.

Query: Supply reported level at 2 h belonging to this sequence: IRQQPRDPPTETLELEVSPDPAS [ALM201]
Response: 417

----------
- Protocol Summary: Plasma pharmacokinetics of ALM201 in Phase I patients (validated LC-MS/MS, Phoenix WinNonlin)
- Condition Info: human, plasma, sc, 300 mg, Tmax, median, 300 mg SC, day 1 cycle 1, n = 3; plasma LC-MS/MS
No end group written: not given here.
Outcome Measure: Tmax (h)
Your answer is read as h, so omit the unit and give the number.

Query: Supply reported Tmax belonging to this sequence: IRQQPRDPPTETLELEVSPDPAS [ALM201]
Response: 2

----------
- Protocol Summary: Plasma pharmacokinetics of ALM201 in Phase I patients (validated LC-MS/MS, Phoenix WinNonlin)
- Condition Info: human, plasma, sc, 300 mg, Tmax, median, 300 mg SC, day 3 cycle 1, n = 3; plasma LC-MS/MS
No end group written: not given here.
Outcome Measure: Tmax (h)
Your answer is read as h, so omit the unit and give the number.

Query: Supply reported Tmax belonging to this sequence: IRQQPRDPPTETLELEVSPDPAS [ALM201]
Response: 1.02
